Here, each record is paired with measured pIC50 data.
# tested_system: human PTPN1 (1-435) (Homo sapiens (Human))
# Sequence (P18031 whole entry): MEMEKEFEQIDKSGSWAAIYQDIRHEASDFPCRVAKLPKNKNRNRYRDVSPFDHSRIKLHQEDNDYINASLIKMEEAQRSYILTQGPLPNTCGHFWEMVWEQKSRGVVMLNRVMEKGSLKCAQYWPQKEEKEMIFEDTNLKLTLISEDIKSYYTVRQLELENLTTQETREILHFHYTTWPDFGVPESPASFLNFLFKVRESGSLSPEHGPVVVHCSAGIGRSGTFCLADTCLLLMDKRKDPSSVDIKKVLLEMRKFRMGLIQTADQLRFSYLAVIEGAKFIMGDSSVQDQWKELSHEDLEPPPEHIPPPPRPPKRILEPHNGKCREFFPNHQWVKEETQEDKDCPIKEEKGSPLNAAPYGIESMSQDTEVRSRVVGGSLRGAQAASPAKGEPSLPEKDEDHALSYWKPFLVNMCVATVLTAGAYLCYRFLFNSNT
Schema: pIC50 number; meaning minus log10 of the concentration expressed in molar units.

>>> observed_measurement("O=C(Nc1ccccc1)c1cc(OCCCC(F)(F)F)c2sc(C(F)(F)P(=O)(O)O)c(Br)c2c1")
8.12
>>> observed_measurement("O=C(NC1CCCN(c2ccccc2)C1)c1ccc2sc(C(F)(F)P(=O)(O)O)c(Br)c2c1 (stereo not shown)")
5.73
>>> observed_measurement("CS(=O)(=O)CCCOc1cc(C(N)=O)cc2c(Cl)c(C(F)(F)P(=O)(O)O)sc12")
7.43

Consider the record given below.
(Q) Give the reported pIC50 for this compound. Cc1c(C(F)(F)P(=O)(O)O)sc2c(OCCCC(C)(C)O)cc(C(N)=O)cc12
(A) 6.82
